B1: tRNA (parent)
chain: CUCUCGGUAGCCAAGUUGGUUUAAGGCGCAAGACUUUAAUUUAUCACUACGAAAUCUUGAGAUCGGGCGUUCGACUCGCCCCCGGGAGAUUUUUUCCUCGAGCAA

# Variants of: B1
# method: nonsense suppression (GFP-seq) (ratio to wild type); higher = more function; SUP4oc tRNA, yeast GFP reporter sort-seq
Variants at the floor of the assay were thinned out.

>  <sequence_chain>
CUCUCGGUAGCCAAGUUGGUUCAAGGCGCAAGACUUUAAUUUAUCACUACGAAAUCUUCAGAUCGGGCGUUCGACUCGCCCCCGGGAGAUUUUUUCCUCGAGCAA

>  <reading_qualifier>
≤

>  <nonsense suppression>
0.026

$$$$
>  <sequence_chain>
CUCUCGGUAGCCAAGUUGGUUUAAGGCGCAAGACUUUAAUUUAUCACUACGAAUUGUUGAGAUCGGGCGUUAGACUCGCCCCCGGGAGAUUUUUUCCUCGAGCAA

>  <reading_qualifier>
≤

>  <nonsense suppression>
0.026

$$$$
>  <sequence_chain>
CUCUCGGUAGCCAAGUUGGUUUGAGGCGCAAGACUUUAAUUUAUCACUACGAAAUCUUGAGAUCGGACGUUCGACUCGCACCCGGGAGAUUUUUUCCUCGAGCAA

>  <reading_qualifier>
≤

>  <nonsense suppression>
0.026

$$$$
>  <sequence_chain>
CUCUCGGUAGCCAAGUUGGUUUAAGGCGCAGGACUUUAAUUUAUCACUACGAAAUCUUGAGAUCGGGCGUUCGACUCGCCCUCGGGAGAUUUUUUCCUCGAGCAA

>  <reading_qualifier>
=

>  <nonsense suppression>
0.25

$$$$
>  <sequence_chain>
CUCUCGGUAGCCAAGUGGGUUUAAGGCGCAAGUCUUUAAUUUAUCACUACGAAAUCUUGAGACCCGGCGUUCGACUCGCCCCCGGGAGAUUUUUUCCUCGAGCAA

>  <reading_qualifier>
≤

>  <nonsense suppression>
0.026

$$$$
>  <sequence_chain>
CUCGCGGUAGCCAAGUUGGUUUAAGGCGCAAGACUUUAAUUUAUCACUACGAAAUCUUGAGAUCGGGCGUUCGGCUCGCCCCCGGGAGAUUUUUUCCUCGAGCAA

>  <reading_qualifier>
=

>  <nonsense suppression>
0.0287

$$$$
>  <sequence_chain>
CUCUCGGUAGGCAAGUUGGUUUGAGGCGCAAGAAUUUAAUUUAUCACUACGAAAUCUUGAGAUCGGGCGUUCGACUCGCCUCCGGGAGAUUUUUUCCUCGAGCAA

>  <reading_qualifier>
≤

>  <nonsense suppression>
0.026

$$$$
>  <sequence_chain>
CUCUCGGUAGCCAAGUUGGUUUAAGGCGCAGGACUUUAAUUUAUCACUACGAAAUCUUGAGAUCGGGCGUUCGACUCGCCCCAGGGAGAUUUUUUCCUCGAGCAA

>  <reading_qualifier>
=

>  <nonsense suppression>
0.0481

$$$$
>  <sequence_chain>
CUCUCGGUAGCCAAGUUGGUUGAAGGCGCAUGACUUUAAUUUAUCACUACGAAAUCUUGAGACCGGGCGUACGACUCGCCCCCGGGAGAUUUUUUCCUCGAGCAA

>  <reading_qualifier>
≤

>  <nonsense suppression>
0.026

$$$$
>  <sequence_chain>
CUCUCGGUAGCCAAGUUGGUUUAAGGCGAAAGACUUUAAUUUAUCACUACGAAAUCUUGAGAUCGGGCGUUCGAUUCGCCCCCGGGAGAUUUUUUCCUCGAGCAA

>  <reading_qualifier>
=

>  <nonsense suppression>
0.0265

$$$$
>  <sequence_chain>
CUCUCGGAAGCCAAGUUGGUUUAAGCCGCAUGACUUUAAUUUAUCACUACGAAAACUUGAGAUCGGGCGUACGACUCGCCCCCGGGAGAUUUUUUCCUCGAGCAA

>  <reading_qualifier>
≤

>  <nonsense suppression>
0.026

$$$$
>  <sequence_chain>
CUCUCGGUCGCUAAGUUGGUUUAAGGCGCAAGACUUUAAUUUAUCACUACGAAAUCUUGAGAUCGGGCGUUCGACUCGCCCCCGGGAGAUUUUUUCCUCGAGCAA

>  <reading_qualifier>
=

>  <nonsense suppression>
0.186

$$$$
>  <sequence_chain>
CUCUCGGUAGCCAAAUUGGUUUAAGGCGCAAGACUUUAAUUUAUCACUACGAAAUCUUGAGAUCGGGCGUUCGAAUCGCCCCCGGGAGAUUUUUUCCUCGAGCAA

>  <reading_qualifier>
=

>  <nonsense suppression>
0.854

$$$$
>  <sequence_chain>
CUCUCGGUAGCCAAGUUGGUGGAAGGCGCAAGACUUUAAUUUAUCACUACGAAAUCUUGAGAUCGGGCGUUCGACUCGCCCCCGGGAGAUUUUUUCCUCGAGCAA

>  <reading_qualifier>
=

>  <nonsense suppression>
0.571

$$$$
>  <sequence_chain>
CUCUCGGUAGCCAAGUUGGUUUAAGUCGCAAGACUUUAAUUUAUCACUACGAAAUCUUGAGAUCGGGCGUCCGACUCGCCCCCGGGAGAUUUUUUCCUCGAGCAA

>  <reading_qualifier>
≤

>  <nonsense suppression>
0.026

$$$$
>  <sequence_chain>
CUCUCGGUAGCCAAGUUGGUAUAAGGCGCAAGACUUUAAUUUAUCACUACGAAAUCUUGAGAUCGGGCGUUCGACUCGGCCCCGGGAGAUUUUUUCCUCGAGCAA

>  <reading_qualifier>
≤

>  <nonsense suppression>
0.026

$$$$

src = the RNAGym collection of RNA variant scans (doi:10.1101/gad.245936.114)
